Biological target: MRFAP1; also: test concentration or dose not given here
Assay: reporter assay of Huesken 2005
Conditions: siRNA
Oligonucleotides are written 5' to 3', each unit as a sugar letter and its base; * is a phosphorothioate linkage, no mark a phosphodiester; rarer units and linkages stand in square brackets, end groups in braces. Plain capitals give the bases only. d = 2'-deoxy (DNA); r = 2'-OH (RNA)
Reported normalised inhibition (eCFP-eYFP dual reporter) values follow for various substances
Assay Metric: normalised inhibition (eCFP-eYFP dual reporter)

sense rCrArCrUrArCrGrUrUrUrCrUrGrCrUrArUrGrGdTdT / antisense rCrCrArUrArGrCrArGrArArArCrGrUrArGrUrGdTdC | 58%
sense rUrCrArUrUrCrCrUrGrGrCrUrUrUrGrGrUrGrUdTdT / antisense rArCrArCrCrArArArGrCrCrArGrGrArArUrGrAdAdC | 52.6%
sense rCrArCrUrGrArGrArCrUrUrGrGrArGrUrUrGrGdTdT / antisense rCrCrArArCrUrCrCrArArGrUrCrUrCrArGrUrGdTdC | 77.6%
